# MEASURED_ON: binding partner of C5A (XPA23)
# PROTOCOL_DETAILS: Biacore K-off
QUANTITY_KIND: fold difference in affinity vs original (fold)

>  <BINDER>
C5A (XPA23) VL A51Y (antibody, V domains shown) VH: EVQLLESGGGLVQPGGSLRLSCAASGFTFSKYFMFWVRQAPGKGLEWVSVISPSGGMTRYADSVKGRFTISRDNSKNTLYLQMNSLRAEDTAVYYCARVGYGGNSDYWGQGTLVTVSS VL: DIQMTQSPSSVSASVGDRLTIICRASQDINRWLAWYQQTPGNAPKLLIHSYTSLQSGVPSRFSGSGSGTDFTLTINSLQPEDFATYYCQQADSFPLTFGGGTKVEIK

>  <QUANTITY_KIND>
fold difference in affinity vs original

>  <EXPERIMENTAL_VALUE>
0.45

$$$$
>  <BINDER>
C5A (XPA23) VH F33E (antibody, V domains shown) VH: EVQLLESGGGLVQPGGSLRLSCAASGFTFSKYEMFWVRQAPGKGLEWVSVISPSGGMTRYADSVKGRFTISRDNSKNTLYLQMNSLRAEDTAVYYCARVGYGGNSDYWGQGTLVTVSS VL: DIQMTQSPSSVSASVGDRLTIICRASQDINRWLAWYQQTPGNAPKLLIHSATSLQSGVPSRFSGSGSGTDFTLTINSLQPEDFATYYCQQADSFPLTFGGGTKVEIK

>  <QUANTITY_KIND>
fold difference in affinity vs original

>  <EXPERIMENTAL_VALUE>
0.86

$$$$
